- Experiment: protein stability index of a GFP-peptide fusion (GPS, HEK-293T) (PSI 1-6); higher = more stable;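 note: 24-mer peptide tiles fused after GFP, lentivirally expressed, FACS-sorted into six equal bins by GFP/DsRed ratio, decoded by Illumina sequencing, PSI is the read-weighted mean bin number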
- Condition details: treatment: DMSO; c terminus: a fixed tail appended
Below, each entry is listed with its recorded protein stability index.
Please give only the number in your answer, with no unit.

# Residue codes, protein stability index
rows = [
    ("PAATWNLEEKRLTWRLPDVSEAGG [FCHO1]", 4.49),
    ("QVLVKDFTFEGFSRLRFLNLGRMI [ZER1]", 2.07),
    ("ELIRVEVEILDLNDNSPSFATPER [PCDHGC5]", 2.42),
    ("DEAELDYLMDVLVGTQALERPPGP [SERTAD1]", 3.74),
    ("HRLMTDARRRVCHTEDFQKEEGTV [CPXM2]", 4.76),
]

Recall and state the measured protein stability index for ALLTGGGSENRNHRLLNMARNNND [RNF180] .
3.7

Recall and state the measured protein stability index for GGGMRVCGFGGGAGSVFGGGFGGG [KRT15] .
2.03

Recall and state the measured protein stability index for VPEEPPVKKLMRTSTPPPASVINN [ZBED1] .
4.89
